measured on: BChE (Human) (Homo sapiens, UniProt P06276)
Construct: purchased Sigma-Aldrich (Steinheim, Germany)
Sequence (P06276 29-602): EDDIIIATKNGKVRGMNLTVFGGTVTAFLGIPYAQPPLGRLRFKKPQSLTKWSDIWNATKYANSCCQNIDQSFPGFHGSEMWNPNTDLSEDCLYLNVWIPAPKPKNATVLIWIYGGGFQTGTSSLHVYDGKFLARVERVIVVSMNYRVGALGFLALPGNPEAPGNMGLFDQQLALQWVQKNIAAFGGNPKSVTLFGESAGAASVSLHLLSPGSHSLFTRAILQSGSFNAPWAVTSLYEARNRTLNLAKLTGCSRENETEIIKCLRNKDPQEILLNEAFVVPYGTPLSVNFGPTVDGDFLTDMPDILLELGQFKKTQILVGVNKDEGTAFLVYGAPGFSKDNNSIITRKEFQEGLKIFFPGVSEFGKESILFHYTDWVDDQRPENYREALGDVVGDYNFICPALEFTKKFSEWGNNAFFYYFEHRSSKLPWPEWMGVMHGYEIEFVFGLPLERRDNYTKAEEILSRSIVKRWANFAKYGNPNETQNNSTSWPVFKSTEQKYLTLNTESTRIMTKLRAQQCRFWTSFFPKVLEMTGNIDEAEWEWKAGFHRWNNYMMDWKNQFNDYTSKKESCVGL
experiment summary: BChE inhibition, Ellman's method
Format: biochemical
conditions: 10^-5 M
quantity measured: BChE (Human) inhibitory activity (%) ± SD
Give the quantity in %, number only.

Here are 2 compounds together with their reported answers.
Cc1ccc(CN2CCN(C(=S)SCC(=O)Nc3c4ccccc4nc4ccccc34)CC2)cc1	48.19
CN(C)CCCN1CCN(C(=S)SCC(=O)Nc2c3ccccc3nc3ccccc23)CC1	72.99

Shifting focus to the compound that follows.
Prompt: Would you kindly share the measured BChE (Human) inhibitory activity (%) ± SD for CN(C)CCN1CCN(C(=S)SCC(=O)Nc2c3ccccc3nc3ccccc23)CC1 ?
Completion: 86.20

* * *

measured on: AChE (Human) (Homo sapiens, UniProt P22303)
Construct: purchased Sigma-Aldrich (Steinheim, Germany)
Sequence (P22303 32-614): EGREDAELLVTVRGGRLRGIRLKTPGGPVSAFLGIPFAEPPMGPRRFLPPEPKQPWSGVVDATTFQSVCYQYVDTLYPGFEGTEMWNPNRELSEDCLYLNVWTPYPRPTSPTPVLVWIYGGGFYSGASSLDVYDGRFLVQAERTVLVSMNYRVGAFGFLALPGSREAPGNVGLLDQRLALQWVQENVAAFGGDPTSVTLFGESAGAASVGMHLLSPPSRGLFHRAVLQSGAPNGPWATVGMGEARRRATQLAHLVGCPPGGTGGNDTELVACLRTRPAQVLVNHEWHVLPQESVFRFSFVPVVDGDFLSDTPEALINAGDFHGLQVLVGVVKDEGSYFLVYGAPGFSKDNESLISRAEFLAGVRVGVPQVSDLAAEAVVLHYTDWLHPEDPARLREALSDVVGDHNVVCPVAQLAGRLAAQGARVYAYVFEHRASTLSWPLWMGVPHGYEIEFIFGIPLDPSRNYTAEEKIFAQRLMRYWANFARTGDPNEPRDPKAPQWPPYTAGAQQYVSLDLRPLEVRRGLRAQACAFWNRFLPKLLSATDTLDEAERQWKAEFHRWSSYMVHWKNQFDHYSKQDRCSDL
experiment summary: AChE inhibition, Ellman's method
Assay type: biochemical
conditions: 10^-3 M
Each entry below carries its reported AChE (Human) inhibitory activity (%) ± SD.
Don't forget the unit after the number, please.

Here are 2 compounds together with their reported answers.
CC1CCCCN1C(=S)SCC(=O)Nc1c2ccccc2nc2ccccc12 (stereo not drawn)	85.44±1.72%
O=C(CSC(=S)N1CCCCC1)Nc1c2ccccc2nc2ccccc12	49.05±0.88%

Shifting focus to the compound that follows.
Prompt: Would you kindly share the measured AChE (Human) inhibitory activity (%) ± SD for O=C(CSC(=S)N1CCN(c2ccc(F)cc2)CC1)Nc1c2ccccc2nc2ccccc12 ?
Completion: 96.90±2.17%

* * *

measured on: AChE (Human) (Homo sapiens, UniProt P22303)
Construct: purchased Sigma-Aldrich (Steinheim, Germany)
experiment summary: AChE inhibition, Ellman's method
Format: biochemical
conditions: 10^-3 M
# if value of AChE (Human) inhibitory activity (%) ± SD reaches 70%, tag t; if it stays below, tag f

O=C(CSC(=S)N1CCN(c2ccccc2)CC1)Nc1c2ccccc2nc2ccccc12 [Compound 4f]	t
CN1CCN(C(=S)SCC(=O)Nc2c3ccccc3nc3ccccc23)CC1 [Compound 4g]	f
O=C(CSC(=S)N1CCN(c2ncccn2)CC1)Nc1c2ccccc2nc2ccccc12 [Compound 4j]	f
O=C(CSC(=S)N1CCN(CCO)CC1)Nc1c2ccccc2nc2ccccc12 [Compound 4e]	f
O=C(CSC(=S)N1CCOCC1)Nc1c2ccccc2nc2ccccc12 [Compound 4r]	f
O=C(CSC(=S)N1CCN(Cc2ccccc2)CC1)Nc1c2ccccc2nc2ccccc12 [Compound 4k]	f
CN(C)CCN1CCN(C(=S)SCC(=O)Nc2c3ccccc3nc3ccccc23)CC1 [Compound 4a]	f
O=C(CSC(=S)N1CCN(c2ccc(Cl)cc2)CC1)Nc1c2ccccc2nc2ccccc12 [Compound 4i]	t
CCN1CCN(C(=S)SCC(=O)Nc2c3ccccc3nc3ccccc23)CC1 [Compound 4c]	f
O=C(CSC(=S)N1CCN(C2CCCCC2)CC1)Nc1c2ccccc2nc2ccccc12 [Compound 4l]	f

Prompt: Kindly determine if AChE (Human) inhibitory activity (%) ± SD recorded for COc1ccc(N2CCN(C(=S)SCC(=O)Nc3c4ccccc4nc4ccccc34)CC2)cc1 [Compound 4h] is above or exactly 70%.
Completion: f

Prompt: Same read-out for CN(C)CCCN1CCN(C(=S)SCC(=O)Nc2c3ccccc3nc3ccccc23)CC1 [Compound 4b] ?
Completion: t

Prompt: Same read-out for Cc1ccc(CN2CCN(C(=S)SCC(=O)Nc3c4ccccc4nc4ccccc34)CC2)cc1 [Compound 4o] ?
Completion: t

Prompt: Same read-out for O=C(CSC(=S)N1CCC(Cc2ccccc2)CC1)Nc1c2ccccc2nc2ccccc12 [Compound 4u] ?
Completion: f

Prompt: Same read-out for O=C(CSC(=S)N1CCN(C(c2ccccc2)c2ccccc2)CC1)Nc1c2ccccc2nc2ccccc12 [Compound 4m] ?
Completion: t

Prompt: Same read-out for O=C(CSC(=S)N1CCN(c2ccc([N+](=O)[O-])cc2)CC1)Nc1c2ccccc2nc2ccccc12 [Compound 4d] ?
Completion: f

* * *

measured on: AChE (Electrophorus electricus) (Electrophorus electricus, UniProt O42275)
Construct: purchased Sigma-Aldrich (Steinheim, Germany)
Sequence (O42275 24-633): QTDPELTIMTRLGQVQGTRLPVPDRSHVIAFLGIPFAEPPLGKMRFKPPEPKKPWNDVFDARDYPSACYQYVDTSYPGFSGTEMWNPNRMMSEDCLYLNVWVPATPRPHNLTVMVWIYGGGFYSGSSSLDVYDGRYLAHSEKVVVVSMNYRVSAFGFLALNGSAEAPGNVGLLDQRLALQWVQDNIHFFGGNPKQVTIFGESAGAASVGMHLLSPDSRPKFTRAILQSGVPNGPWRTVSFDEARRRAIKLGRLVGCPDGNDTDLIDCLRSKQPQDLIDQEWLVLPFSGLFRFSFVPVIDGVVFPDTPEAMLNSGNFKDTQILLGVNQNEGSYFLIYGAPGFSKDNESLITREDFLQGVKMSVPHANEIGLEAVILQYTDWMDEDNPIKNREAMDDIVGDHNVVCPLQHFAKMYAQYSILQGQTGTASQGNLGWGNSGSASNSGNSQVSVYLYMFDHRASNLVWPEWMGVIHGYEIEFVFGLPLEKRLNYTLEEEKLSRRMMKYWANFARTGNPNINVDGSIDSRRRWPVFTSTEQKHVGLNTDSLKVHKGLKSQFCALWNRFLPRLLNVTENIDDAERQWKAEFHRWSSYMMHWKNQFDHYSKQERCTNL
experiment summary: AChE inhibition, Ellman's method
Assay type: biochemical
conditions: 10^-3 M
# if value of AChE (Electrophorus electricus) inhibitory activity (%) ± SD reaches 60%, tag yes (1); if it stays below, tag no (0)

Solved cases (7 shown):
COc1ccc(N2CCN(C(=S)SCC(=O)Nc3c4ccccc4nc4ccccc34)CC2)cc1	no (0)
O=C(CSC(=S)N1CCN(c2ncccn2)CC1)Nc1c2ccccc2nc2ccccc12	yes (1)
CN1CCN(C(=S)SCC(=O)Nc2c3ccccc3nc3ccccc23)CC1	no (0)
O=C(CSC(=S)N1CCCCC1)Nc1c2ccccc2nc2ccccc12	no (0)
O=C(CSC(=S)N1CCN(C(c2ccccc2)c2ccccc2)CC1)Nc1c2ccccc2nc2ccccc12	yes (1)
O=C(CSC(=S)N1CCN(C2CCCCC2)CC1)Nc1c2ccccc2nc2ccccc12	no (0)
O=C(CSC(=S)N1CCN(c2ccc(F)cc2)CC1)Nc1c2ccccc2nc2ccccc12	yes (1)

Prompt: Kindly determine if AChE (Electrophorus electricus) inhibitory activity (%) ± SD recorded for O=C(CSC(=S)N1CCOCC1)Nc1c2ccccc2nc2ccccc12 is above or exactly 60%.
Completion: yes (1)

* * *

measured on: BChE (Human) (Homo sapiens)
Construct: purchased Sigma-Aldrich (Steinheim, Germany)
experiment summary: BChE inhibition, Ellman's method
Assay type: biochemical
conditions: read-out: BChE (Human) IC50
Each entry below carries its reported IC50.
Don't forget the unit after the number, please.

Prompt: Would you kindly share the measured IC50 for CN(C)CCN1CCN(C(=S)SCC(=O)Nc2c3ccccc3nc3ccccc23)CC1 ?
Completion: 243 nM

Prompt: Same read-out for CC1CCCCN1C(=S)SCC(=O)Nc1c2ccccc2nc2ccccc12 (stereo not drawn) ?
Completion: 1610 nM

Prompt: Same read-out for O=C(CSC(=S)N1CCN(CCO)CC1)Nc1c2ccccc2nc2ccccc12 ?
Completion: 1370 nM

* * *

Each entry below carries its reported IC50.
measured on: BChE (Human) (Homo sapiens, UniProt P06276)
Construct: purchased Sigma-Aldrich (Steinheim, Germany)
experiment summary: BChE inhibition, Ellman's method
Type: biochemical
conditions: read-out: BChE (Human) IC50
Give the quantity in nM, number only.

CN(C)CCCN1CCN(C(=S)SCC(=O)Nc2c3ccccc3nc3ccccc23)CC1 [Compound 4b]	222

Prompt: Would you kindly share the measured IC50 for O=C(CSC(=S)N1CCN(c2ccc(Cl)cc2)CC1)Nc1c2ccccc2nc2ccccc12 [Compound 4i] ?
Completion: 2100

Prompt: Same read-out for O=C(CSC(=S)N1CCN(C(c2ccccc2)c2ccccc2)CC1)Nc1c2ccccc2nc2ccccc12 [Compound 4m] ?
Completion: 93

Prompt: Same read-out for Cc1ccc(CN2CCN(C(=S)SCC(=O)Nc3c4ccccc4nc4ccccc34)CC2)cc1 [Compound 4o] ?
Completion: 1070

* * *

measured on: BChE (Equine) (Equus caballus, UniProt P81908)
Construct: purchased Sigma-Aldrich (Steinheim, Germany)
Sequence (P81908 whole entry): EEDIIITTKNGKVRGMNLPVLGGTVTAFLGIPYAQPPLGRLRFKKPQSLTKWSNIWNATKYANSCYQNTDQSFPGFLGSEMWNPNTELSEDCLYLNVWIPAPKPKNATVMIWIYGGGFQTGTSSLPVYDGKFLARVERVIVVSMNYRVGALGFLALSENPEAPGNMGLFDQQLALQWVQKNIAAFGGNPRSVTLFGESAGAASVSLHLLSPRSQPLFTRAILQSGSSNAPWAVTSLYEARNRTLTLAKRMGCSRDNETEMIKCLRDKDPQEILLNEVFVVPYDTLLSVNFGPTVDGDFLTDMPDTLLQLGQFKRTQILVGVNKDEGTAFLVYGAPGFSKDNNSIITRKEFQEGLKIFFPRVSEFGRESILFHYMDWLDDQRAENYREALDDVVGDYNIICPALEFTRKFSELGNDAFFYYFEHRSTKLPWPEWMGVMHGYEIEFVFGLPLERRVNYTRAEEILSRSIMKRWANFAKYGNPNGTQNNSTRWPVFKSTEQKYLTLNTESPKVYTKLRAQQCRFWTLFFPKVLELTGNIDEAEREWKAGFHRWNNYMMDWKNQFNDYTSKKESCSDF
experiment summary: biochemical
Assay type: biochemical
conditions: 10^-4 M
quantity measured: BChE (Equine) inhibitory activity (%) ± SD

Prompt: Would you kindly share the measured BChE (Equine) inhibitory activity (%) ± SD for O=C(CSC(=S)N1CCC(Cc2ccccc2)CC1)Nc1c2ccccc2nc2ccccc12 ?
Completion: 29.50 ± 0.48%

* * *

measured on: BChE (Human) (Homo sapiens)
Construct: purchased Sigma-Aldrich (Steinheim, Germany)
experiment summary: BChE inhibition, Ellman's method
Type: biochemical
conditions: 10^-3 M
Each entry below carries its reported BChE (Human) inhibitory activity (%) ± SD.
Give the quantity in %, number only.

Here are 2 compounds together with their reported answers.
O=C(CSC(=S)N1CCN(CCO)CC1)Nc1c2ccccc2nc2ccccc12	98.95
Cc1ccc(CN2CCN(C(=S)SCC(=O)Nc3c4ccccc4nc4ccccc34)CC2)cc1	99.25

Prompt: Would you kindly share the measured BChE (Human) inhibitory activity (%) ± SD for O=C(CSC(=S)N1CCN(Cc2ccccc2)CC1)Nc1c2ccccc2nc2ccccc12 ?
Completion: 70.98

Prompt: Same read-out for COc1ccc(N2CCN(C(=S)SCC(=O)Nc3c4ccccc4nc4ccccc34)CC2)cc1 ?
Completion: 80.88

Prompt: Same read-out for O=C(CSC(=S)N1CCCCC1)Nc1c2ccccc2nc2ccccc12 ?
Completion: 84.27

Prompt: Same read-out for O=C(CSC(=S)N1CCN(c2ccc(F)cc2)CC1)Nc1c2ccccc2nc2ccccc12 ?
Completion: 92.55

Prompt: Same read-out for O=C(CSC(=S)N1CCN(c2ccc(Cl)cc2)CC1)Nc1c2ccccc2nc2ccccc12 ?
Completion: 98.22

Prompt: Same read-out for O=C(CSC(=S)N1CCN(c2ccccc2)CC1)Nc1c2ccccc2nc2ccccc12 ?
Completion: 75.23

Prompt: Same read-out for CN(C)CCCN1CCN(C(=S)SCC(=O)Nc2c3ccccc3nc3ccccc23)CC1 ?
Completion: 97.55

Prompt: Same read-out for O=C(CSC(=S)N1CCOCC1)Nc1c2ccccc2nc2ccccc12 ?
Completion: 94.18

Prompt: Same read-out for CN(C)CCN1CCN(C(=S)SCC(=O)Nc2c3ccccc3nc3ccccc23)CC1 ?
Completion: 98.50

Prompt: Same read-out for O=C(CSC(=S)N1CCN(C(=O)c2ccco2)CC1)Nc1c2ccccc2nc2ccccc12 ?
Completion: 95.29

Prompt: Same read-out for O=C(CSC(=S)N1CCN(C(c2ccccc2)c2ccccc2)CC1)Nc1c2ccccc2nc2ccccc12 ?
Completion: 98.18

Prompt: Same read-out for CC1CCCCN1C(=S)SCC(=O)Nc1c2ccccc2nc2ccccc12 (centres unmarked) ?
Completion: 97.28

Prompt: Same read-out for O=C(CSC(=S)N1CCN(c2ncccn2)CC1)Nc1c2ccccc2nc2ccccc12 ?
Completion: 90.51

Prompt: Same read-out for O=C(CSC(=S)N1CCC(Cc2ccccc2)CC1)Nc1c2ccccc2nc2ccccc12 ?
Completion: 38.33

Prompt: Same read-out for O=C(CSC(=S)N1CCN(c2ccc([N+](=O)[O-])cc2)CC1)Nc1c2ccccc2nc2ccccc12 ?
Completion: 80.56
